- Assay Name: AUClast in BALB/c mouse model of mBSA-induced delayed type hypersensitivity at 3 mg/kg, po administered twice daily for 7 days followed by mBSA challenge and measured after 24 hrs
- Format: ADME, organism-based
- Parameters: route oral, time 8 day, dose 3 mg/kg
- Cond: in vivo
Attribute Measured: AUC(0-t) at 192 h (µM·h)
Express your answer in µM·h, writing the number without its unit.

Fill blank: measured AUC(0-t) at 192 h of the molecule `Cc1c(-c2ccc(NC(=O)c3c(F)cccc3F)cc2)cccc1-c1nn(C)c(=O)o1` is ____.
8.3

###

- Assay Name: AUClast in CFA-induced rheumatoid arthritis Lewis rat model at 1 mg/kg, po administered once daily for 15 days
- Format: ADME, organism-based
- Parameters: route oral, dose 1 mg/kg, time 15 day
- Cond: in vivo
Attribute Measured: AUC(0-t) at 360 h
// unit must come after the numeric part

So what's the measured AUC(0-t) at 360 h for this one? `Cc1c(-c2ccc(NC(=O)c3c(F)cccc3F)cc2)cccc1-c1nn(C)c(=O)o1`
36 µM·h
